Value source: ChEMBL document CHEMBL1201862

- Test system: K562
- ASSAY INFO: NCI tumour cell line growth inhibition, 48 h
Activity calls are given as the source filed them. Rule as the data show it: active = GI50 up to about 1.1 µM and inactive = higher.
Outcome codes: active, inactive

[
  {
    "COMPOUND": "O=C1/C(=C/c2cccc(Br)c2)CSC/C1=C\\c1cccc(Br)c1",
    "CATEGORY LABEL": "inactive"
  },
  {
    "COMPOUND": "Cc1[nH]c2ccccc2c1/C=N/c1ccc(/N=C/c2c(C)[nH]c3ccccc23)cc1",
    "CATEGORY LABEL": "inactive"
  },
  {
    "COMPOUND": "COCC(C#N)NC1CC(OC2CC(O)(C(=O)CO)Cc3c(O)c4c(c(O)c32)C(=O)c2c(OC)cccc2C4=O)OC(C)C1O (stereo not given)",
    "CATEGORY LABEL": "active"
  },
  {
    "COMPOUND": "CS(=O)(=O)CS(=O)(=O)OCCCl",
    "CATEGORY LABEL": "inactive"
  },
  {
    "COMPOUND": "Cc1ccc([N+](=O)[O-])cc1NC(=O)/C(CC(=O)c1sc(C(N)=S)nc1C)=N\\N",
    "CATEGORY LABEL": "inactive"
  },
  {
    "COMPOUND": "Cc1cc2c(C)n[nH]c2c(C(=O)O)c1C",
    "CATEGORY LABEL": "inactive"
  },
  {
    "COMPOUND": "COc1cc(/C=C/c2nc(NC(=S)Nc3ccccc3)nnc2C)cc(OC)c1OC",
    "CATEGORY LABEL": "inactive"
  },
  {
    "COMPOUND": "Cc1cc2c(c(=O)n1C)SCC2",
    "CATEGORY LABEL": "inactive"
  },
  {
    "COMPOUND": "COc1ccc(/C(Cl)=C(\\C#N)c2ccc(OC)c(OC)c2)cc1OC",
    "CATEGORY LABEL": "inactive"
  },
  {
    "COMPOUND": "O=C1CCCN1CCC/N=c1/cc2n(-c3ccc(Cl)cc3)c3ccccc3nc-2cc1Nc1ccc(Cl)cc1",
    "CATEGORY LABEL": "inactive"
  }
]
